system: Pectobacterium atrosepticum; experiment: Activity of Erwinia carotovora subsp. atroseptica DSM 30184 beta-lactamase CAR-1
Everything with Km lower than 200 µM is Not met; everything else, including exactly 200 µM, is Met.

Hello, I need to know if `CC1(C)S[C@@H]2[C@H](NC(=O)[C@H](C(=O)O)c3ccsc3)C(=O)N2[C@H]1C(=O)O` has measured Km not below 200 µM. Thanks!
Met

Answer whether Km of `CO/N=C(\C(=O)N[C@@H]1C(=O)N2C(C(=O)O)=C(COC(N)=O)CS[C@H]12)c1ccco1` is greater than or equal to 200 µM.
Not met

// inclusive: Km at least 200 µM? input: `CC(C)(O/N=C(\C(=O)N[C@@H]1C(=O)N2C(C(=O)[O-])=C(C[n+]3ccccc3)CS[C@H]12)c1csc(N)n1)C(=O)O`
Met

Can `CO/N=C(\C(=O)N[C@@H]1C(=O)N2C(C(=O)O)=C(CSc3nc(=O)c(O)nn3C)CS[C@H]12)c1csc(N)n1` be said to have Km at or above 200 µM?
Not met

Decide: Km of `CO/N=C(\C(=O)N[C@@H]1C(=O)N2C(C(=O)O)=C(COC(C)=O)CS[C@H]12)c1csc(N)n1` >= 200 µM?
Not met

* * *

Assign kcat to each entry below.
system: Pectobacterium atrosepticum; assay: Activity of Erwinia carotovora subsp. atroseptica DSM 30184 beta-lactamase CAR-1
Could you give me the number in s⁻¹? Just the number is fine.

Given the entry `CC1(C)S[C@@H]2[C@H](NC(=O)Cc3ccccc3)C(=O)N2[C@H]1C(=O)O` , report its measured kcat.
2

kcat lookup needed for `CC1(C)S[C@@H]2[C@H](NC(=O)[C@H](C(=O)O)c3ccsc3)C(=O)N2[C@H]1C(=O)O` , thanks.
9

Would you kindly share the measured kcat for `CO/N=C(\C(=O)N[C@@H]1C(=O)N2C(C(=O)O)=C(CSc3nc(=O)c(O)nn3C)CS[C@H]12)c1csc(N)n1` ?
13

Param item = `CO/N=C(\C(=O)N[C@@H]1C(=O)N2C(C(=O)O)=C(COC(N)=O)CS[C@H]12)c1ccco1` ; retrieve measured kcat.
400

Param item = `CC1(C)S[C@@H]2[C@H](NC(=O)[C@H](N)c3ccccc3)C(=O)N2[C@H]1C(=O)O` ; retrieve measured kcat.
5

Need kcat of `CO/N=C(\C(=O)N[C@@H]1C(=O)N2C(C(=O)O)=C(COC(C)=O)CS[C@H]12)c1csc(N)n1` , thanks.
250

* * *

system: Pectobacterium atrosepticum; assay: Ratio of Kcat to Km for Erwinia carotovora subsp. atroseptica DSM 30184 beta-Lactamase CAR-1
Measurement type: kcat/Km (×10⁶ /M/s)
Please give a number only; it is taken to be in ×10⁶ /M/s.

Would you mind telling me what kcat/Km value was observed for `CO/N=C(\C(=O)N[C@@H]1C(=O)N2C(C(=O)O)=C(COC(N)=O)CS[C@H]12)c1ccco1` ?
3.6

Given `CO/N=C(\C(=O)N[C@@H]1C(=O)N2C(C(=O)O)=C(COC(C)=O)CS[C@H]12)c1csc(N)n1` , state its recorded kcat/Km.
1.5

* * *

tested on: Bradyrhizobium japonicum; experiment: Ratio of Kcat to Km for Bradyrhizobium japonicum beta-Lactamase BJP-1
Measurement type: kcat/Km

Query (compound): `CO/N=C(\C(=O)N[C@@H]1C(=O)N2C(C(=O)O)=C(COC(N)=O)CS[C@H]12)c1ccco1` ; field requested: kcat/Km
5 ×10⁵ /M/s

Look up kcat/Km for this compound: `CO/N=C(\C(=O)N[C@@H]1C(=O)N2C(C(=O)[O-])=C(C[N+]3(C)CCCC3)CS[C@H]12)c1csc(N)n1`
2 ×10² /M/s

Consider the compound shown here: `CO/N=C(\C(=O)N[C@@H]1C(=O)N2C(C(=O)O)=C(COC(C)=O)CS[C@H]12)c1csc(N)n1` What is its recorded kcat/Km?
1.4 ×10⁵ /M/s

What value of kcat/Km has been reported for the following compound? `CC1(C)S[C@@H]2[C@H](NC(=O)Cc3ccccc3)C(=O)N2[C@H]1C(=O)O`
1.3 ×10⁵ /M/s

Requested field: kcat/Km. Item: `C[C@@H](O)[C@H]1C(=O)N2C(C(=O)O)=C([C@H]3CCCO3)S[C@H]12`
6.8 ×10³ /M/s
